- METHOD DESCRIPTION: Inhibition of dyn2 in human U2OS cells assessed as clathrin-mediated endocytosis of Tfn after 30 mins
OUTCOME MEASURE: IC50 (µM)
All answers are understood in µM, so give the number only.

> print(dat)
           compound.structure.string  numeric.value
1  CCCCCCCCNCc1cn(CCCN(C)C)c2ccccc12            3.5

In the following, a different molecule is considered.
stdin: # get_value(readout='IC50', item= "CCCCCCCCNC(=O)/C(C#N)=C/c1cn(CCCN(C)C)c2ccccc12" )
stdout: 5

Reference source: BindingDB's records for doi:10.1021/jm300844m
